Reported activity coefficient values for a set of molecules
- assayProcedure: activity coefficient (dimensionless); of the first substance listed, at infinite dilution; xn = mol fraction of the nth substance listed
- experimentalSetup: 343.1 K; 101 kPa; Liquid; Chromatography; x1 = 0
metricName: activity coefficient

{"columns": ["molecule", "result"],
 "data": [
  ["ClCCl [dichloromethane] + CCCCCC[N+]1(C)CCCC1.O=S(=O)([N-]S(=O)(=O)C(F)(F)F)C(F)(F)F", 0.35],
  ["ClC(Cl)Cl [trichloromethane] + CCCCCC[N+]1(C)CCCC1.O=S(=O)([N-]S(=O)(=O)C(F)(F)F)C(F)(F)F", 0.74],
  ["CC(C)OC(C)C [diisopropyl ether] + CCCCCCCC[N+]1(C)CCCC1.O=S(=O)([N-]S(=O)(=O)C(F)(F)F)C(F)(F)F", 2.26],
  ["CCCCCCCCC [nonane] + CCCCCCCC[N+]1(C)CCCC1.O=S(=O)([N-]S(=O)(=O)C(F)(F)F)C(F)(F)F", 9.14]
]}

* * *

- assayProcedure: activity coefficient (dimensionless); of the first substance listed, at infinite dilution; xn = mol fraction of the nth substance listed
- experimentalSetup: 332.5 K; 101 kPa; Liquid; Chromatography; x1 = 0
Kindly return 1 (yes) if reported activity coefficient is no lower than 0.6; return 0 (no) if it is lower.

{"columns": ["compound", "classification"],
 "data": [
  ["Cc1ccccc1 [toluene] + CCCCCCCCCC[N+]1(C)CCCC1.O=S(=O)([N-]S(=O)(=O)C(F)(F)F)C(F)(F)F", "1 (yes)"],
  ["CCCC(C)=O [pentan-2-one] + CCCCCCCCCC[N+]1(C)CCCC1.O=S(=O)([N-]S(=O)(=O)C(F)(F)F)C(F)(F)F", "0 (no)"],
  ["c1ccccc1 [benzene] + CCCCCCCCCC[N+]1(C)CCCC1.O=S(=O)([N-]S(=O)(=O)C(F)(F)F)C(F)(F)F", "1 (yes)"],
  ["Cc1ccccc1C [1,2-dimethylbenzene] + CCCCCCCCCC[N+]1(C)CCCC1.O=S(=O)([N-]S(=O)(=O)C(F)(F)F)C(F)(F)F", "1 (yes)"],
  ["CCCCCCCCC [nonane] + CCCCCCCCCC[N+]1(C)CCCC1.O=S(=O)([N-]S(=O)(=O)C(F)(F)F)C(F)(F)F", "1 (yes)"],
  ["C=CCCCC [hex-1-ene] + CCCCCCCCCC[N+]1(C)CCCC1.O=S(=O)([N-]S(=O)(=O)C(F)(F)F)C(F)(F)F", "1 (yes)"],
  ["CC#N [acetonitrile] + CCCCCCCCCC[N+]1(C)CCCC1.O=S(=O)([N-]S(=O)(=O)C(F)(F)F)C(F)(F)F", "0 (no)"]
]}

* * *

- assayProcedure: activity coefficient (dimensionless); of the first substance listed, at infinite dilution; xn = mol fraction of the nth substance listed
- experimentalSetup: 343.1 K; 101 kPa; Liquid; Chromatography; x1 = 0
metricName: activity coefficient

{"columns": ["molecule", "metricName", "result"],
 "data": [
  ["CCO [ethanol] + CCCCCCCC[N+]1(C)CCCC1.O=S(=O)([N-]S(=O)(=O)C(F)(F)F)C(F)(F)F", "activity coefficient", 0.98],
  ["CCCCCCCCC [nonane] + CCCCCC[N+]1(C)CCCC1.O=S(=O)([N-]S(=O)(=O)C(F)(F)F)C(F)(F)F", "activity coefficient", 18.5],
  ["C1CCCCC1 [cyclohexane] + CCCCCCCC[N+]1(C)CCCC1.O=S(=O)([N-]S(=O)(=O)C(F)(F)F)C(F)(F)F", "activity coefficient", 3.06],
  ["CCO [ethanol] + CCCCCC[N+]1(C)CCCC1.O=S(=O)([N-]S(=O)(=O)C(F)(F)F)C(F)(F)F", "activity coefficient", 1.31],
  ["C1COCCO1 [1,4-dioxane] + CCCCCCCC[N+]1(C)CCCC1.O=S(=O)([N-]S(=O)(=O)C(F)(F)F)C(F)(F)F", "activity coefficient", 0.31],
  ["ClC(Cl)(Cl)Cl [tetrachloromethane] + CCCCCCCC[N+]1(C)CCCC1.O=S(=O)([N-]S(=O)(=O)C(F)(F)F)C(F)(F)F", "activity coefficient", 1.15],
  ["ClCCl [dichloromethane] + CCCCCCCC[N+]1(C)CCCC1.O=S(=O)([N-]S(=O)(=O)C(F)(F)F)C(F)(F)F", "activity coefficient", 0.28]
]}
